Entry source: paper PMC6919601

Item-by-item account of % Inhibition @ 10 uM
Molecular target: DPAP1 (Plasmodium falciparum, UniProt Q8IIJ9);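 also: 30 min substrate incubation versus DMSO and 10 µM JCP410 controls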
Sequence (Q8IIJ9 whole entry, looked up): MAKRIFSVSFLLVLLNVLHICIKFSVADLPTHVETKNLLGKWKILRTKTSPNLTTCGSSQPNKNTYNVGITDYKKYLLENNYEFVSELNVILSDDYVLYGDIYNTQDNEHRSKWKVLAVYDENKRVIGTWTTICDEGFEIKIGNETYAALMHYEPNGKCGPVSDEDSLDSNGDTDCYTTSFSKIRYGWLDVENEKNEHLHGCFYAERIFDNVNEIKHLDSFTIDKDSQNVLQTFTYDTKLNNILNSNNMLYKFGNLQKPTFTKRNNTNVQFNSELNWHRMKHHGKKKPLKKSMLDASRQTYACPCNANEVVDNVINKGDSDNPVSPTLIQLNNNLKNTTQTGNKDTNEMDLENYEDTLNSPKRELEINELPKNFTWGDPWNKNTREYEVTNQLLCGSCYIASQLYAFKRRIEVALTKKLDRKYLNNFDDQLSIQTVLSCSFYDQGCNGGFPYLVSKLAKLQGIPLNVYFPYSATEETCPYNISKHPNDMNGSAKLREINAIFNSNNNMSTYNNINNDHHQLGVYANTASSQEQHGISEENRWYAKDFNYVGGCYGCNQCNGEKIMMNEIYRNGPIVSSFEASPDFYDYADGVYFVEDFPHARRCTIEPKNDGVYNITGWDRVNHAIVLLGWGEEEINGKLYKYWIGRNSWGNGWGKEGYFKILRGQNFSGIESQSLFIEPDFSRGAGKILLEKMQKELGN
Assay: primary screen, percent inhibition; read by cleavage of a fluorogenic dipeptide substrate; higher = more effect of the substance
Design: species or system P. falciparum D10 trophozoite lysates; single well
Out of some 110,000 compounds screened, about 230 (0.21%) showed an effect of 50% or more. This is one part of a sample in which strong results are shown more often than they occur.
Please respond with the number in % and leave the unit unwritten.

Record excerpt, results attached:
COMPOUND	TARGET SYSTEM	UNITS SYMBOL	% Inhibition @ 10 uM
CS(=O)(=O)N(CC(=O)Nc1ccccc1)c1cccc(F)c1	DPAP1 (Plasmodium falciparum, UniProt Q8IIJ9)	%	-10.1
Cc1oc2ncnc(N3CCOCC3)c2c1C(=O)N(C)Cc1ccco1	DPAP1 (Plasmodium falciparum, UniProt Q8IIJ9)	%	4.76
COc1ccccc1C(=O)Nc1cccc(F)c1	DPAP1 (Plasmodium falciparum, UniProt Q8IIJ9)	%	-5.29
CCOc1ccccc1C(=O)Nc1ccc(C(C)=O)cc1	DPAP1 (Plasmodium falciparum, UniProt Q8IIJ9)	%	-7.23
Brc1ccc(-c2cn3nc(C4CCCCC4)sc3n2)cc1	DPAP1 (Plasmodium falciparum, UniProt Q8IIJ9)	%	-2.71
CCOc1ccc(-n2nc3ccc(NC(=O)c4ccc5c(c4)OCCO5)cc3n2)cc1	DPAP1 (Plasmodium falciparum, UniProt Q8IIJ9)	%	17.9
N#Cc1cc2c(N)c(C(=O)c3ccc(Br)cc3)sc2nc1N	DPAP1 (Plasmodium falciparum, UniProt Q8IIJ9)	%	2.7
Cc1ccc(NC(=O)CN2C(=O)S/C(=C\c3ccccc3C)C2=O)cc1	DPAP1 (Plasmodium falciparum, UniProt Q8IIJ9)	%	-5.4
Cc1ccc(/C=C(\C#N)C(N)=S)o1	DPAP1 (Plasmodium falciparum, UniProt Q8IIJ9)	%	79.5
CC(=O)Nc1ccc(NC(=O)CN(c2cccc(F)c2)S(C)(=O)=O)cc1	DPAP1 (Plasmodium falciparum, UniProt Q8IIJ9)	%	8.06

### Prompt Note down % Inhibition @ 10 uM recorded for CCCCOc1ccc(C2=NC(=O)/C(=C/c3cccc(OC)c3OC)O2)cc1
### Response 2.1

### Prompt Return the recorded % Inhibition @ 10 uM value; entry: CCCc1nc2ccccc2n1Cc1ccccc1OC
### Response 0.913

### Prompt Specify % Inhibition @ 10 uM for CC1CCN(S(=O)(=O)c2ccc(NC(=O)C(C)(C)C)cc2)CC1 and stop.
### Response -6.17

### Prompt For the compound N#CC1=C2SCN(CCc3ccccc3)CN2C(=O)CC1c1ccc(F)cc1 (centres unmarked) , give its measured % Inhibition @ 10 uM value.
### Response 51.6

### Prompt Specify % Inhibition @ 10 uM for Cc1ccc(NC(=O)CN2C(=O)S/C(=C\c3ccccc3O)C2=O)cc1 and stop.
### Response 50.5

### Prompt Please give the documented % Inhibition @ 10 uM of CC(=O)c1ccc(N2CCN(Cc3ccc(C)cc3C)CC2)cc1
### Response -5.11

### Prompt In one line, give reported % Inhibition @ 10 uM of the entry N=C(NOC(=O)C12CC3CC(CC(C3)C1)C2)c1ccc(Cl)cc1 .
### Response -0.597

### Prompt Identify measured % Inhibition @ 10 uM associated with Cc1ccc(C2CC(=O)N3CN(CCc4ccccc4)CSC3=C2C#N)cc1 (centres unmarked)
### Response 64

### Prompt Please list % Inhibition @ 10 uM recorded for the compound O=C(Nc1cccnc1)c1cc2n(n1)C(C(F)(F)F)CC(c1ccc(Br)cc1)N2 (centres unmarked)
### Response 2.99

### Prompt Supply reported % Inhibition @ 10 uM belonging to this compound: COC(=O)c1sccc1-n1c(S)c(C#N)c(N)c(C#N)c1=N
### Response -2.21

### Prompt Look up and state reported % Inhibition @ 10 uM for C/C(CCC1CC(C)OC1=O)=N\NC(N)=S (centres unmarked)
### Response -1.6

### Prompt Tell me measured % Inhibition @ 10 uM for Cc1nc2ccccc2c2oc(C(=O)NCc3ccc(F)cc3)cc12 please.
### Response 1.62

### Prompt Provide only the value of recorded % Inhibition @ 10 uM for COc1ccccc1NC(=O)c1cnc(Nc2nc3ccccc3o2)nc1C
### Response -4.12
